Target: Aβ42 (Homo sapiens, UniProt P05067)
Construct: The Aβ42 peptide was produced by Bachem AG; purchased Bachem AG
Sequence (P05067 672-713 limits assumed, species assumed): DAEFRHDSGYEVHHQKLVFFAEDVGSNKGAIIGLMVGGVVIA
Experiment: Polymerization assay (ThT fluorescence): inhibition of Aβ42 aggregation
Type: biochemical
Conditions: 25 μM Aβ42, 1% DMSO, 50 mM phosphate buffer pH 7.5, 100 mM NaCl; ThT fluorescence
// values below are reported pIC50
// scale note: pIC50 = -log10(conc_M); give the bare number

Illustrative cases are given below, each with its answer.
>  <molecule>
Oc1cc(O)c2c(c1)O[C@H](c1ccc(O)c(O)c1)[C@@H](O)[C@@H]2c1c(O)cc(O)c2c1O[C@H](c1ccc(O)c(O)c1)[C@@H](O)C2

>  <pIC50>
5.45

$$$$
>  <molecule>
Oc1cc(O)c2c(c1)O[C@H](c1cc(O)c(O)c(O)c1)[C@H](O)C2 [EGC, (−)-epigallocatechin]

>  <pIC50>
5.07

$$$$
>  <molecule>
Oc1cc(O)c2c(c1)O[C@H](c1ccc(O)c(O)c1)[C@@H](O)C2 [C, (+)-catechin]

>  <pIC50>
4.83

$$$$
>  <molecule>
Oc1cc(O)c2c(c1)O[C@H](c1ccc(O)c(O)c1)[C@H](O)[C@H]2c1c(O)cc(O)c2c1O[C@H](c1ccc(O)c(O)c1)[C@@H](O)C2

>  <pIC50>
5.48

$$$$
>  <molecule>
Oc1cc(O)c2c(c1)O[C@H](c1cc(O)c(O)c(O)c1)[C@@H](O)C2 [GC, (−)-gallocatechin]

>  <pIC50>
4.76

$$$$

// pIC50 lookup, key: Oc1cc(O)c2c(c1)O[C@H](c1ccc(O)c(O)c1)[C@H](O)C2 [EC, (−)-epicatechin]
5.03
